# merged literature set: IC50 with Plasminogen activator inhibitor 1 (Homo sapiens)
metric-name: IC50 (nM)

{"compound": "O=C(Nc1cc(C(F)(F)F)cc(C(F)(F)F)c1)c1nc(O)c2ccccc2c1O", "IC50 [nM]": 13700}
{"compound": "O=C(Nc1ccc(Cl)cc1)c1nc(O)c2ccccc2c1O", "IC50 [nM]": 24000}

(P) O=C(O)C1CCN(c2cc(N3CCN(c4cccc(C(F)(F)F)c4)CC3)c(C(F)(F)F)cc2[N+](=O)[O-])CC1
(Q) O=C(O)/C=C/c1ccc(/C=C2\NC(=O)C(c3ccccc3)=C2c2ccco2)o1
Query :: Endpoint returns the identifier whose IC50 is numerically larger, either P or Q . Write down the label of the entry you select.
Result :: Q
(Q: 1500 nM, P: 880 nM)

(P) O=C1N/C(=C\c2ccc(OCCCc3cccnc3)cc2)C(=O)c2ccccc21
(Q) O=C(O)C1CCCN(c2cc(N3CCN(c4cccc(C(F)(F)F)c4)CC3)c([N+](=O)[O-])cc2C(F)(F)F)C1 (stereo not drawn)
(R) O=c1[nH]/c(=C\c2ccc(OCCCc3cccnc3)cc2)c(=O)[nH]/c1=C\c1ccccc1
Query :: // ranking: key=IC50, reverse=True # format: label list in the order the request specifies
Result :: P, Q, R
(P: 18000 nM, Q: 2800 nM, R: 1000 nM)
